# Tested on: K4 kissing-loop RNA reporter;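 note: bound reporter read as fluorescence of individual clusters on recovered sequencing chips by microscopy, with normalized cluster intensities fitted with a binding model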
# Test Protocol: apparent KD of K4 kissing-loop reporter; higher = weaker reporter binding
# Measurement Parameters: Eterna round: R107; input ligand: theophylline 20 uM
What apparent KD of K4 kissing-loop reporter was measured for each of the following?
Numbers only, in nM.

{"columns": ["Sequence Entry", "Experimental Value"],
 "data": [
  ["GCUAUGGUAGGAAGGAGCGCUGCGUUGUUUUUACGAGUGAUGUUCGGAAGCGGCGUGUUAAAGCAGGUAGGUCGCCUACUAUAGC [Arginine B K4 24]", 172],
  ["GGGAGUAGUGCGGCCGCCACUGAGAAAGAAGAAGAAUAUAGUGAUGUUAUAUAGGAAGGGAAGAACAGGACCGGGCAUUAGAUUU [SSTRyptB.Y]", 311],
  ["CGCAAGCAGCUAGUGAUGUUGGCCGCCUUGCGAGGACCGGUACGGCCGCCACUCGGAGGCGGCUACUGAUAAACCGUCUAACGGA [KL-XTryp-A10]", 70.6],
  ["CUAGCUAGCAUGGAAACAUGCUAGCUAGAUUAGGAUAUGACGUAAGUCAGAAGGGAUAAAUGGAGUGAUGUUCCGGACGCAAGUC [#2 Same State - FMN A Attempt #4 (HarryS)]", 295],
  ["CCUAUCUCAUACGAUACCAGUCUACGAUAUUUUAUCGUUGCCAACACCGAGUGAUGUUCGGACCCUUGGCAGCGUAUGGGAUAGG [#03 K4 Theophylline B Exclusion]", 138]
]}

// next item, apparent KD of K4 kissing-loop reporter requested
Lab book: apparent KD of K4 kissing-loop reporter of UGAUACCAGACGGCCGCCACUCCUGCAAGUCAAAGACUUGCUAAGGAAAUCGUCCAGUGAUGUUGGAGGACCGGGUCUGGUAUCU [TrypBX 17 #SwitchBubble #Palindromic #StaticStem] noted as 717

---

# Test system: MS2 coat protein
# Test Protocol: apparent KD of MS2 coat protein; designed switch direction (-1 OFF switch, 1 ON switch): -1; higher = weaker reporter binding
# Measurement Parameters: input ligand: FMN 200 uM
Recorded Endpoint: apparent KD of MS2 coat protein (nM)
Answers are plain numbers, in nM.

Example entries begin here.
{"columns": ["Sequence Entry", "Measurement Target", "Endpoint Unit", "apparent KD of MS2 coat protein"],
 "data": [
  ["AGGUGUAGAGGAUAUCUCUUCUCUCACAUGAGGAUCACCCAUGUCCUGGGUACCUAGGAGAGAGAAGGCUACACCA [Omei Ex5 D11] (Eterna round: R97, puzzle: Exclusion 5)", "MS2 coat protein", "nM", 1370],
  ["UAGUUAGCGUGUGGCACAUACAUGAGGAUCACCCAUGUUAGCUUAUAUAUUGCUCGUCUUAUAACAACACUUAACUU [Mod JX-Electric-eye6] (Eterna round: R97, puzzle: Sensor, turn-off variant 1)", "MS2 coat protein", "nM", 18.7],
  ["AUCAGCUCGUGAGGAUAUGCACAUGAGGAUCACCCAUGUAAGAUCAAGCUGCUUCGGCAGCAAGUGCAGAAGGUACGAGCUGAU [ENG2/9-C2] (Eterna round: R96, puzzle: Exclusion NG 2)", "MS2 coat protein", "nM", 206],
  ["CGCCUCAGCACAUGAGGAUCACCCAUGUACAAAAGUCCCAGGGAGGAUAUCUGCUGGUUGACUAGAGAGAAGGCCCAUACUAAC [Eternabot solution 45] (Eterna round: R96, puzzle: Exclusion NG 3)", "MS2 coat protein", "nM", 42.6],
  ["UCGCUCCGUGUAGGAUAUCGCCGUACUAUACGGCGAGAAGGACAUGAGGAUCACCCAUGUAUGUUAUUAUCACGCGUGGCGCAA [Design 60] (Eterna round: R96, puzzle: Exclusion NG 1)", "MS2 coat protein", "nM", 21]
]}

Provide apparent KD of MS2 coat protein values for the following items, in order.
1. UAUUAGCAAGCGAGAUCCCACAUGAGGAUCACCCAUGUGCUCGUCUUAUAAAAGACUGUGACGAGAGUCACGGUCAC [Mat - Sensor, turn-off var - Eli Mod - D23] (Eterna round: R97, puzzle: Sensor, turn-off variant 1)
2. CCAAGCUUUUUCAUUAACAACAUGAGGAUCACCCAUGUUUAAGCUAUUACUUUUGGGCUCUUUAGUGCUCGUCUUAU [JR_STOV1_Sub040] (Eterna round: R97, puzzle: Sensor, turn-off variant 1)
3. GUAGAGUCAGGAUAUACAAGAUCGAUAGAUCGGCGAUCCAUACAUGAGGAUCACCCAUGUAGAAGGGACUCUAC [Mat - Exclusion 2 - Eli Mod - D3] (Eterna round: R97, puzzle: Exclusion 2)
4. GCUCAACAUGAGGAUCACCCAUGUGAGGAUAUGCGAAUUUCAUCAAAAGAUGAAAUUUGCAGAAGGCACUGAGC [Omei Ex1 A35] (Eterna round: R97, puzzle: Exclusion 1)
5. CAAGCUAUUGUAGCAACUAACAUGAGGAUCACCCAUGUAGGCAUAACUUACCUAGCUCGUUUAUACAAAUCAAUUGU [Eternabot (L2) Solution 11] (Eterna round: R97, puzzle: Sensor, turn-off variant 1)
6. CAGUACAGAGGAUAUACAUGAGGAUCACCCAUGUGUUCCAGCUAGGAAACUAGCGAAUGUAGAAGGCUGUACUG [jl-ex3-4.23 salish99 mod] (Eterna round: R97, puzzle: Exclusion 3)
7. UAAUAACAUGUAGGAUAUGCGUGGCGAAGCUAUGCAGAAGGACAUGAGGAUCACCCAUGUUAAAGCGUCUGCGUACAGAUGCGA [Mat - Exclusion NG 1 - Mod of JL - D97] (Eterna round: R96, puzzle: Exclusion NG 1)
8. AACCUGAGGCUUUGCUUUAGGUGUACAUGAGGAUCACCCAUGUAGGAUAUGGUAGGCUUUGCUUACCAGAAGGACAUUGGCGUU [JL ENG3 1.14] (Eterna round: R96, puzzle: Exclusion NG 3)

13.7
14.4
693
17.4
13.1
166
188
388

Hi there! I need apparent KD of MS2 coat protein for each item below, if you can.
1. GAUCCCAUUGUUAGGAUAUAUAGCCUAACGCGAGUGUAGAAGGGACAUGAGGAUCACCCAUGUGUGCAUUAGGG [Eternabot (L2) Solution 96] (Eterna round: R97, puzzle: Brourd's mod of Exclusion 4)
2. GCUUAACAUGAGGAUCACCCAUGUUAGGAUAUGCGAACUCGUAAGAUGCAGGGAGAUUGCAGAAGGAACGUGGC [EX1 C.15] (Eterna round: R97, puzzle: Exclusion 1)

1. 37.2
2. 22

Hi! Can you tell me apparent KD of MS2 coat protein for each of these sequences?
1. AAAAAUUACAUGAGGAUCACCCAUGUAGAGUGGGAAGAGAGAUAGGAUAUGAUGUGAGAAUCAUAUCAGAAGGAUCGAGACUCA [AK ExNG3-2.1] (Eterna round: R96, puzzle: Exclusion NG 3)
2. GUGGCGGAUGCGAACAUGAGGAUCACCCAUGUACAGUCCCUACAGGAUAUCCGCAGUGCCUAGCAGGAGAAGGGUAGGAGCACA [Eternabot solution 40] (Eterna round: R96, puzzle: Exclusion NG 3)
3. AGGUCACAUGAGGAUCACCCAUGUGAGGAUAUAGACUCAAGAGCUUCGGCUCUCAAGUUUAGAAGGCGCAAUGA [EX1 #52] (Eterna round: R97, puzzle: Exclusion 1)

[129, 16, 31.7]

Where do these numbers come from? They come from the supplement of paper PMC9170038.
